assay: NCI Yeast Anticancer Drug Screen. Data for the sgs1 mgt1 strain (AID 161);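 further: 0% = growth of cultures given vehicle only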; settings: S. cerevisiae sgs1 mgt1 strain, at 50.0 µM, stronger effect = higher value
The panel holds about 79,000 compounds, 15% with a hit somewhere; the sample as a whole holds those more often.
Endpoint Name: growth inhibition (%)
Express it in %; write the number only.

Cc1cc2c(=O)cc(-c3ccccc3)oc2c(C(=O)O)c1C; 14.8

q: Give the reported growth inhibition for this compound. CC1(CBr)COC(c2ccccc2)(c2ccccc2)OC1
a: 20.6

q: Give the reported growth inhibition for this compound. CCCCCC(=O)NC(=S)Nc1nn[nH]n1
a: -39.1

====

assay: NCI Yeast Anticancer Drug Screen. Data for the bub3 strain (AID 167); settings: S. cerevisiae bub3 mutant strain, at 50.0 µM, stronger effect = higher value
Compounds without any hit were thinned out: in the full panel of roughly 79,000, 15% have a hit.
Endpoint Name: growth inhibition (%)
Express it in %; write the number only.

Worked cases, growth inhibition given:
CCO/C=C(/C#N)C(=O)OCC; -14.3
c1nc2c([nH]1)CNCC2; -12.2
Nc1[nH]nc2nc3n(c(=O)c12)CCCCC3; -5.75

q: Give the reported growth inhibition for this molecule. O=C(CO)c1ccccc1
a: 4

q: Give the reported growth inhibition for this molecule. Cc1ccc(S(=O)(=O)OC(c2ccccc2)c2ccccc2)cc1
a: 0

q: Give the reported growth inhibition for this molecule. CC1(C#N)C(C#N)(C#N)C1(C#N)C#N
a: -30.1

q: Give the reported growth inhibition for this molecule. COc1cc(C(=O)NC(=S)Nc2csc(-c3ccc(F)cc3)n2)cc(OC)c1OC
a: -0.75

q: Give the reported growth inhibition for this molecule. CNC(=O)N(C)C(C)=O
a: -5.15

The values you see were collected from PubChem BioAssay (NCI).
